- Test system: MCF-7 human breast cancer cells
- Measurement Description: cells
- Stated Conditions: MCF7, MCF-7
Parameter Measured: IC50

As a guide, the following entries are already answered.
# Molecule, IC50
records = [
    ("C=C(C)C1C(=O)N(c2cc(OC)c(OC)c(OC)c2)C1c1ccc(OC)c(N)c1 (stereo not drawn)", "33 nM"),
    ("C=C(C)C1C(=O)N(c2cc(OC)c(OC)c(OC)c2)C1c1ccc2ccccc2c1 (stereo not drawn)", "139 nM"),
    ("C=C(C)C1C(=O)N(c2cc(OC)c(OC)c(OC)c2)C1c1ccc(OC)cc1 (stereo not drawn)", "33 nM"),
    ("C=C(C)C1C(=O)N(c2cc(OC)c(OC)c(OC)c2)C1c1ccc(OCC)cc1 (stereo not drawn)", "81 nM"),
    ("COc1ccc(/C=C\\c2cc(OC)c(OC)c(OC)c2)cc1O [CA-4, Combretastatin A-4, reference compound]", "3.9 nM"),
]

Short answer please: IC50, MCF-7 human breast cancer cells, entry C=CCC1C(=O)N(c2cc(OC)c(OC)c(OC)c2)C1c1ccc(OC)c(N)c1 (stereo not drawn) [10r]
10 to 33 nM

----------
- Tested on: UO-31
- Measurement Description: NCI-60 SRB screen, renal cancer
- Format: cell-based, human
- Stated Conditions: Homo sapiens; UO-31; five dose 0.01–100 µM, 48 h; read-out: GI50
Binarize GI50 at 90 nM; below is 1, at or above is -1.

Say whether its GI50 is strictly beneath 90 nM. Entry: C=C(C)C1C(=O)N(c2cc(OC)c(OC)c(OC)c2)C1c1ccc(OC)c(N)c1 (stereo not drawn)
1

Another compound: COc1ccc(C2C(C(C)C)C(=O)N2c2cc(OC)c(OC)c(OC)c2)cc1OP(=O)(O)O (stereo not drawn) [15b]
-1

For C=CCC1C(=O)N(c2cc(OC)c(OC)c(OC)c2)C1c1ccc(OC)c(O)c1 (stereo not drawn) [10p] then?
1

Another compound to look at: C=C(C)C1C(=O)N(c2cc(OC)c(OC)c(OC)c2)C1c1ccc(OC)cc1 (stereo not drawn)
-1

Lookup C=C(C)C1C(=O)N(c2cc(OC)c(OC)c(OC)c2)C1c1ccc(OC)c(OP(=O)(O)O)c1 (stereo not drawn) [15a]
-1

----------
- Measurement Description: HPLC stability study in phosphate buffers
- Type: physicochemical
- Stated Conditions: phosphate buffer; pH 9.0; study over 264 h
Parameter Measured: remaining at 264 h, 14.6 µg/mL

Some compounds with known remaining at 264 h, 14.6 µg/mL results, for comparison:
# Compound, remaining at 264 h, 14.6 µg/mL
records = [
    ("C=CCC1C(=O)N(c2cc(OC)c(OC)c(OC)c2)C1c1ccc(OC)c(N)c1 (stereo not shown) [10r]", "83%"),
    ("C=CCC1C(=O)N(c2cc(OC)c(OC)c(OC)c2)C1c1ccc(OC)cc1 (stereo not shown) [10h]", "24%"),
    ("C=CCC1C(=O)N(c2cc(OC)c(OC)c(OC)c2)C1c1ccc(OC)c(O)c1 (stereo not shown) [10p]", "96%"),
]

Please examine the following record next.
I have this compound here, C=CCC1C(=O)N(c2cc(OC)c(OC)c(OC)c2)C1c1ccc(OC)c([N+](=O)[O-])c1 (stereo not shown) [10q] , and I need its recorded remaining at 264 h, 14.6 µg/mL.
22%

----------
- System: MCF-7
- Measurement Description: cells
- Stated Conditions: Homo sapiens, MCF7
pIC50: −log10 of the molar value.
Parameter Measured: pIC50

For the molecule C=C(C)C1C(=O)N(c2cc(OC)c(OC)c(OC)c2)C1c1ccc(OC)c(O)c1 (stereo not shown) [9q] , what pIC50 is on record?
> 8.00

----------
- Measurement Description: HPLC stability under degradation conditions (acid, alkali, heat, light, oxidation)
- Stated Conditions: 30% H2O2 added to stock solution, Hydrogen peroxide (30 % H2O2, 0.2 mL), 20 °C, 6h
This listing pairs compounds with measured remaining at 6 h.
Quick note: give the figure in %, leave out the unit.

# Compound, Units Text, remaining at 6 h
data = [
    ("C=CCC1C(=O)N(c2cc(OC)c(OC)c(OC)c2)C1c1ccc(OC)c([N+](=O)[O-])c1 (stereo not drawn) [10q]", "%", 92),
    ("C=CCC1C(=O)N(c2cc(OC)c(OC)c(OC)c2)C1c1ccc(OC)cc1 (stereo not drawn) [10h]", "%", 100),
]

Next up:
Give the measured remaining at 6 h of C=CCC1C(=O)N(c2cc(OC)c(OC)c(OC)c2)C1c1ccc(OC)c(N)c1 (stereo not drawn) [10r] .
8

----------
- Tested on: PC-3
- Measurement Description: NCI-60 SRB screen, prostate cancer
- Format: cell-based, human
- Stated Conditions: Homo sapiens; PC-3; five dose 0.01–100 µM, 48 h; read-out: GI50
Exam item: assign T to entries whose GI50 is below 50 nM and F to entries at or above 50 nM. Note that a value of exactly 50 nM receives F.

# Compound, Class Assignment
data = [
    ("C=CCC1C(=O)N(c2cc(OC)c(OC)c(OC)c2)C1c1ccc(OC)c(O)c1 (stereo not drawn) [10p]", "T"),
    ("C=C(C)C1C(=O)N(c2cc(OC)c(OC)c(OC)c2)C1c1ccc(OC)cc1 (stereo not drawn)", "T"),
    ("COc1ccc(C2C(C(C)C)C(=O)N2c2cc(OC)c(OC)c(OC)c2)cc1OP(=O)(O)O (stereo not drawn) [15b]", "F"),
]

# TODO verify GI50 < 50 nM strictly for this compound: C=C(C)C1C(=O)N(c2cc(OC)c(OC)c(OC)c2)C1c1ccc(OC)c(O)c1 (stereo not drawn)
T

Request: C=C(C)C1C(=O)N(c2cc(OC)c(OC)c(OC)c2)C1c1ccc(OC)c(N)c1 (stereo not drawn)
T

----------
Below are molecules with their GI50 as measured on MCF-7.
Write down the numeric answer in nM and omit the unit.

What reported GI50 corresponds to C=C/C=C/C1C(=O)N(c2cc(OC)c(OC)c(OC)c2)C1c1ccc(OC)c(N)c1 (centres unmarked) [11r] on MCF-7?
33.6

Same lookup for C=C(C)C1C(=O)N(c2cc(OC)c(OC)c(OC)c2)C1c1ccc(OC)c(OP(=O)(O)O)c1 (centres unmarked) [15a] , please.
51.3

----------
- Tested on: UACC-62
- Measurement Description: NCI-60 SRB screen, melanoma
- Assay type: cell-based, human
- Stated Conditions: Homo sapiens; UACC-62; five dose 0.01–100 µM, 48 h; read-out: GI50
Parameter Measured: GI50 (nM)
Give your result in nM as a bare value.

A selection of reference data follows.
# Molecule, Study Target, Units Text, GI50
data = [
    ("COc1ccc(C2C(C(C)C)C(=O)N2c2cc(OC)c(OC)c(OC)c2)cc1OP(=O)(O)O (stereo not shown) [15b]", "UACC-62", "nM", 131),
    ("C=C(C)C1C(=O)N(c2cc(OC)c(OC)c(OC)c2)C1c1ccc(OC)c(N)c1 (stereo not shown) [9s]", "UACC-62", "nM", 40.6),
]

Return reported GI50; argument: C=C(C)C1C(=O)N(c2cc(OC)c(OC)c(OC)c2)C1c1ccc(OC)cc1 (stereo not shown) [9h]
39.2

----------
- System: MCF-7 human breast cancer cells
- Measurement Description: cells
- Stated Conditions: MCF7, 72 h, read-out: Antiproliferative Activity IC50, MCF-7, 72 h, eight concentrations (0.001–50 mM [sic]), mean ± SEM, Table 5
Quick reference for pIC50 among some molecules
A value of pIC50 is the negative decimal logarithm of a concentration given in moles per litre.

// solved cases for pIC50 follow
# Molecule, pIC50
records = [
    ("CCCCOc1ccc(C2C(C3C=CCC4C(=O)N(c5ccccc5)C(=O)C43)C(=O)N2c2cc(OC)c(OC)c(OC)c2)cc1 (stereo not shown) [21c]", 4.41),
    ("COc1ccc(C2C(CC=Cc3ccc(C(F)(F)F)cc3)C(=O)N2c2ccccc2)cc1 (stereo not shown) [17e]", 5.32),
]

Any idea what pIC50 came out for CCOC(=O)CC1C(=O)N(c2cc(OC)c(OC)c(OC)c2)C1c1ccc(OC)cc1 (stereo not shown) [17f] on MCF-7 human breast cancer cells?
7.46

And for COc1ccc(C2C(CC=Cc3ccccc3)C(=O)N2c2cc(OC)c(OC)c(OC)c2)cc1O (stereo not shown) [17b] ?
5.96

----------
CC50 overview
- Test system: NCI 60 human cancer cell line panel
- Measurement Description: NCI 60 cell line screen (SRB), panel values
- Stated Conditions: Homo sapiens, 60 cell, read-out: Mean LC50
All answers are understood in µM, so give the number only.

# Molecule, Study Target, Units Text, CC50
measured = [
    ("C=C(C)C1C(=O)N(c2cc(OC)c(OC)c(OC)c2)C1c1ccc(OC)cc1 (stereo not drawn) [9h]", "NCI 60 human cancer cell line panel", "µM", 87.1),
]

Which value of CC50 has been reported for C=CCC1C(=O)N(c2cc(OC)c(OC)c(OC)c2)C1c1ccc(OC)c(N)c1 (stereo not drawn) [10r] in the records?
79.4

Another molecule: C=C(C)C1C(=O)N(c2cc(OC)c(OC)c(OC)c2)C1c1ccc(OC)c(N)c1 (stereo not drawn) [9s]
75.9
